molecular target: T1, ROR1 extracellular domain Fc-fusion, dimer (human, UniProt Q01973 30-406); assay: SPR, immobilised ROR1 dimer, antibody injected, 1:1 model
T1 construct: also called ROR1 dimer; hROR1 dimeric ECD-Fc fusion protein; not shown: Fc part
T1 sequence (Q01973 30-406): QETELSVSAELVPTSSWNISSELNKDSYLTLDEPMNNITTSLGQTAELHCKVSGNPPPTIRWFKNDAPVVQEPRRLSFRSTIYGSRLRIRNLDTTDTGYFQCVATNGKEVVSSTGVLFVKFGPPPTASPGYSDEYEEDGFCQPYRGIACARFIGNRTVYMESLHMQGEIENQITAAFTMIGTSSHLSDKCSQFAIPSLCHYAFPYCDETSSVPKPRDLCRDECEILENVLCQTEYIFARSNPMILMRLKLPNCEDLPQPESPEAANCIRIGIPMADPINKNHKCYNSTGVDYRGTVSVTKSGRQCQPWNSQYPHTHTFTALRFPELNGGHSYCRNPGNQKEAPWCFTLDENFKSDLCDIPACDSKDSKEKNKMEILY
Parameter koff: see the listing below.
Provide the reading as a plain figure in s⁻¹.

# annotated cases, reported koff shown
binder | result-type | measurement-units | recorded-measurement
Antibody 601-119 (antibody, V domains shown) VH: QVQLVQSGGGLVKPGGSLRLSCAASGFTFGTYSMNWVRQAPGKGLEWVSSISSSSSYIYYADSVKGRFTISRDNAKNSLYLQMNSLRAEDTAVYYCARGLGGWTHDAFDIWGQGTTVTVSS VL: QSALTQPASVSASPGQSITISCTGTSSDVGGYNYVTWYQQHPGKAPKLMIYDVSKRPSGVLDRFSGSKSGNTASLTISGLQAEDEADYFCSSYTSSSTLVFGGGTKLTVLG | koff | s⁻¹ | 0.079
Antibody 601-9 (antibody, V domains shown) VH: QLQLQESGPGVVKPSGTLSLTCTVSGGSISRSDGYWGWVRQPPGKGLEWIGSIYDTGTTYYSPSLKSRLIISVDTSKNQFSLTLNSVTAADTAVYYCASMGGLRSSSSDAFHTWGPGTMVTVSS VL: QSVLTQPPSVSVAPGETARITCGGTNIGSESVHWYQQRPGQAPVLVVYDDTDRPSGIPERFSGSNSGNTATLTISRVEAGDGADYYCQVWDSVSDRYVFGTGTKVTVL | koff | s⁻¹ | 0.021

-- ask # input binder: Antibody 601-37 (antibody, V domains shown) VH: EVQLVQSGAEVKKPGASVKVSCKASGYTFNNYGFSWVRQAPGQGLEWMGWISVYNGNTNYAQKLQGRVTMTTDTSTSTAYMELRSLRSDDTAVYYCARDYYSDSSGYWDDAFDIWGQGTMVTVSS VL: AIRMTQSPSSLSASVGDRVTITCQASQDISNYLNWYQQKPGKAPKLLIYAASSLQSGVPSRFSGSGSGTDFTLTISSLQPEDFATYYCQQSYSTPFTFGPGTKVDIK ; wanted: its koff
-- reply 0.0018

// provenance: patent US20180009892A1
